Target entity: GRIP2_3, Q9C0E4
Sequence (Q9C0E4 238-339): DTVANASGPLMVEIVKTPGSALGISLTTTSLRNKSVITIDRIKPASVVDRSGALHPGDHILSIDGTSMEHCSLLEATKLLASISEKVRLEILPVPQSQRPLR
Experiment: holdup assay
Design: key: below the threshold = too weak to quantify, mostly under pKd 3.1 to 4
Condition parameters: plain residues with an end cap or a label only (N-terminal biotin on a linker: ttds)
Outcome measure: pKd

These recorded examples may help you get a feel for the data.
QFQYAKESYI [TAGAP, Q8N103] : below the threshold
LDSQIQETSI [MAP4, P27816] : below the threshold
PKRPFVESNV [TANC2, Q9HCD6] : below the threshold
DPRNTQTSQI [ABRAXAS2, Q15018] : 3.6
LCALPKVTTV [AGMAT, Q9BSE5] : below the threshold

Consider now this further binder.
Per the record, DPLTPSRSQL [DGKK, Q5KSL6] has pKd of below the threshold

Sourced from paper PMC9482650
